system: bone resorption (parietal bone); assay: Bone resorption-inhibitory activity (45Ca release from newborn mouse parietal bone, hPTH (1-34) stimulated, method of Raisz); format: cell-based, ICR mouse; conditions: read-out: bone resorption-inhibitory action, % against control
Decision: inhibition at 20 µM >= 30% yields T, all other cases yield F.

Below are worked cases with known answers.
Cc1nnc2n1-c1ccccc1C(c1ccc(Cl)cc1)=NC2NC(=O)C(=O)Nc1ccccc1 (centres unmarked): F
Cc1nnc2n1-c1sc(Cc3ccc(CC(C)C)cc3)cc1C(c1ccccc1Cl)=NC2: F
CCc1cc2c(s1)-n1ccnc1CN=C2c1ccccc1Cl: T
Cc1cccc(NC(=O)OCC2N=C(c3ccccc3)c3ccccc3-n3c(C)nnc32)c1 (centres unmarked): F
Cc1cccc(N2C(=O)NC3(N=C(c4ccc(Cl)cc4)c4ccccc4-n4c(C)nnc43)C2=O)c1 (centres unmarked): T

Request: Determine whether this molecule has inhibition at 20 µM no lower than 30%: Cc1nnc2n1-c1sc(CCc3ccc(CC(C)C)cc3)cc1C(c1ccccc1Cl)=NC2C (centres unmarked)
Response: F

Request: Determine whether this molecule has inhibition at 20 µM no lower than 30%: CCCCCCCCCCc1ccc2c(c1)C(c1ccccc1)=NC(C)c1nnc(C)n1-2 (centres unmarked)
Response: F

Request: Determine whether this molecule has inhibition at 20 µM no lower than 30%: `CCCc1nnc2n1-c1sc(CCc3ccc(CC(C)C)cc3)cc1C(c1ccccc1Cl)=NC2`
Response: F

Request: Determine whether this molecule has inhibition at 20 µM no lower than 30%: Cc1nnc2n1-c1ccccc1C(c1ccc(Cl)cc1)=NC2NC(=O)NC(=O)c1ccccc1 (centres unmarked)
Response: F

Request: Determine whether this molecule has inhibition at 20 µM no lower than 30%: Cc1nnc2n1-c1ccccc1C(c1ccc(Cl)cc1)=NC2NC(=O)Nc1ccccn1 (centres unmarked)
Response: T

Request: Determine whether this molecule has inhibition at 20 µM no lower than 30%: Cc1cccc(NC(=O)NCC2N=C(c3ccc(Cl)cc3)c3ccccc3-n3c(C)nnc32)c1 (centres unmarked)
Response: T
